Compiled literature Ki, tested on Adenosine receptor A1 (Rattus norvegicus, UniProt P25099).
Sequence (P25099 whole entry): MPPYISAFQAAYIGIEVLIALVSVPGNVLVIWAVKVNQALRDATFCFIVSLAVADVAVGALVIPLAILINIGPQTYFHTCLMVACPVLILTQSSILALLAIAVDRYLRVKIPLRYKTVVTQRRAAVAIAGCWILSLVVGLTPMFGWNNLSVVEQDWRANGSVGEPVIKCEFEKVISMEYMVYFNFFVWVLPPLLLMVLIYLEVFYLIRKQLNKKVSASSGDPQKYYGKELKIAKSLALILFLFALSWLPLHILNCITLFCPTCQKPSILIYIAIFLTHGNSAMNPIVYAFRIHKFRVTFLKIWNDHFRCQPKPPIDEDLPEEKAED
Property Label: Ki (nM)

>>> reported_measurement("O[C@@H]1[C@H](O)[C@@H](c2ccon2)O[C@H]1n1cnc2c(NCc3cccc(I)c3)nc(Cl)nc21")
1900
>>> reported_measurement("Nc1ncnc2c1c1c(n2-c2ccccc2)CCCC1")
3240
>>> reported_measurement("Cn1c(=O)c2c(nc(-c3ccccc3)n2C)n(C)c1=O")
17000
>>> reported_measurement("CCCn1c(=O)c2[nH]c([C@]34CC[C@](CCC(=O)O)(CC3)CC4)nc2n(CCC)c1=O")
1.3
>>> reported_measurement("Nc1nc(C#CCOc2ccc(F)c(Cl)c2)cn2nc(-c3ccco3)nc12")
4300
>>> reported_measurement("CCCN1C(=O)N2C[C@H](C(C)CC)N=C2c2[nH]c(C34CCC(O)(CC3)CC4)nc21 (stereo not given in full)")
14
>>> reported_measurement("Nc1nc(OCCCCC2CCCCC2)nc2c1ncn2C1O[C@H](CO)[C@@H](O)[C@H]1O (stereo not given in full)")
1100
>>> reported_measurement("Cn1c(=O)c2c(cc(/C=C/c3ccccc3)n2C)n(C)c1=O")
2600
>>> reported_measurement("CCCn1c(=O)c2c(nc3n2CCCN3CCc2ccc(OCC(=O)NCCCn3ccnc3)cc2)n(CCC)c1=O")
605
>>> reported_measurement("OC[C@H]1O[C@@H](n2cnc3c(NN4CCCC(Oc5ccccc5)C4)nc(Cl)nc32)[C@H](O)[C@@H]1O (mixture of isomers)")
15
>>> reported_measurement("Cn1c(Cc2cccs2)nc2c1c(=O)n(CC1CC1)c(=O)n2Cc1ccco1")
100
>>> reported_measurement("CN1C(=O)N2CCCCN=C2c2c1ncn2C")
19800
>>> reported_measurement("C[C@H](c1ccccc1)n1c2ccccc2c2c(N)nc(-c3cccnc3)nc21")
92
>>> reported_measurement("CCNC(=O)[C@H]1OC(n2cnc3c(N)nc(C#CCc4ccccc4)nc32)[C@H](O)[C@@H]1O (stereo not given in full)")
27.4
